B1: tRNA (parent)
chain: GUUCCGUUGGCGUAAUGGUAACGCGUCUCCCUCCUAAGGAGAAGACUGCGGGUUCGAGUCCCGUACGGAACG

variants of: B1; test: yeast fitness relative to wild type (ratio to wild type); higher = fitter; tRNA-Arg(CCU), competitive growth, 37 C, YPD
Variants at the floor of the assay were thinned out.
Measured Quantity: yeast fitness
Answers are plain numbers.

// worked examples, yeast fitness included
Sequence Change	yeast fitness
G10C U26C	0.673
G17A C62A	0.558
C27G A65G	0.694

# batch size: 6; output yeast fitness per entry
1. C4G A14C A20G
2. A42C C49U
3. G23A C24G A37C
4. C30U U59G
5. A15C G39A C46U
6. C49U A57U

A)
1: 0.619; 2: 0.939; 3: 0.506; 4: 0.898; 5: 0.55; 6: 0.632

Here are 8 variants. What values of yeast fitness were reported for them?
1. A21U A36G
2. G48C G67U
3. C31U A37U A70U
4. A20G A36U
5. A15C A43C
6. G6C U7C G48A
7. U2A C11U G23A C29G
8. G25A C27U

A)
1. 0.804
2. 0.811
3. 0.558
4. 0.644
5. 0.609
6. 0.614
7. 0.527
8. 0.901

State recorded yeast fitness for all listed variants.
1. C33U C55U
2. C22G C24A
3. A36U A57U
4. U3C C46A A70C
5. C22G C55G G63C
6. A20C U53C

A)
[0.586, 0.673, 0.547, 1.12, 0.572, 0.717]
